These entries and their values trace back to PubChem BioAssay (NCATS).

- system_tested: Phospholipid hydroperoxide glutathione peroxidase GPX4 (Homo sapiens) (UniProt P36969)
- Sequence (P36969 whole entry, looked up): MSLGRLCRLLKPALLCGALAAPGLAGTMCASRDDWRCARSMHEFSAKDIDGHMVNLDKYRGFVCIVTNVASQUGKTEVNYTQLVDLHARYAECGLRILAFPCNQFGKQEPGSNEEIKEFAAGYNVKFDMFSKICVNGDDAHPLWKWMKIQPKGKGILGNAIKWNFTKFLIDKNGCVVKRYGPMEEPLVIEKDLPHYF
- protocol_text: Primary qHTS Assay for Inhibitors of Recombinant Selenoprotein Glutathione Peroxidase 4 (GPX4) (AID 1845192); also: nearly all actives have a fitted effect of over 65% in size; also: potency is read from the fitted curve at half-maximal effect
- condition_parameters: recombinant GPX4, GR-coupled NADPH fluorescence, 15 min; series mostly up to 50 µM
Inconclusive results are not listed. The source made the active and inactive calls. Calls follow the shape of the dose curve; as a rule, active = well fitted inhibition curve with a large enough effect; inconclusive = small, poorly fitted or top-dose-only effect; inactive = flat fitted curve, though single readings scatter.
recorded_endpoint: Potency

molecule: C=Cc1ccccc1
recorded_endpoint: Potency
experimental_result: inactive
//
molecule: O=C(Nc1ccc2[nH]c(=O)oc2c1)C(=O)N1CCC(Cc2ccc(F)cc2)CC1
recorded_endpoint: Potency
experimental_result: inactive
//
molecule: C=C1C(=O)OC2C(OC(=O)C=C(C)C)C(C)=C3C(=O)C=C(C)C3C(O)C12 (stereo not given)
recorded_endpoint: Potency
experimental_result: inactive
//
molecule: N#CSc1cc(SC#N)c(N)nc1N
recorded_endpoint: Potency
experimental_result: inactive
//
molecule: CC(C)(C)[C@H](NC(=O)c1ccc(N)c(Cl)c1)C(=O)N1CCC[C@H]1C(=O)N[C@H](C#N)CC(=O)O
recorded_endpoint: Potency
experimental_result: inactive

Hi there! I need Potency for each item below, if you can.
1. COc1cc2ncc(-c3ccccc3)nc2cc1OC
2. CC(C)n1c(=O)c(C(=O)NC2CC3CCC(C2)N3C[C@@H](O)CN(C)S(C)(=O)=O)cc2ccccc21 (stereo not given in full)
3. COC(=O)c1ccnc(-c2cc(C(=O)Nc3ccc(C4(N)CC4)cc3)ccn2)c1
4. CNC[C@@H]1CC[C@@H](N)[C@@H](O[C@H]2[C@H](O)[C@@H](O[C@H]3OC[C@](C)(O)[C@H](NC)[C@H]3O)[C@H](N)C[C@@H]2N)O1
5. CN(C)Cc1ccccc1
6. C=C1CC[C@@H](O)[C@]2(C)CC[C@H]3C(=C)C(=O)O[C@@H]3[C@@H]12
7. COc1ccc([C@H]2Cc3cccc(O)c3C(=O)O2)cc1OC
8. O=C(COc1ccc2ccccc2c1Br)Nc1cccnc1

Out:
1: 20.2 µM (active); 2: inactive; 3: inactive; 4: inactive; 5: inactive; 6: inactive; 7: inactive; 8: inactive

For every item in the list below, what is its measured Potency?
1. O=C1c2ccc(Nc3ccc(F)cc3F)cc2CCc2ccc(OCC(O)CO)cc21 (stereo not given)
2. CCCC1(CCC)CCC2(CCN(CCCN(CC)CC)C2)CC1
3. CN(C)N(C)C(=O)[C@@]1(Cc2ccccc2)CCCN(C(=O)[C@@H](Cc2c[nH]c3ccccc23)NC(=O)C(C)(C)N)C1
4. C=CC(=O)Nc1cccc(Nc2nc(Nc3ccc(NC4CN(CCF)C4)cc3OC)ncc2C(F)(F)F)c1
5. CCc1cnc(N2CCC(c3nc(COc4ccc(-n5cnnn5)cc4)cs3)CC2)nc1
6. FC(F)(F)c1ccc(CNc2ccc(Cc3c[nH]c4ncc(Cl)cc34)cn2)cn1

Out:
1: inactive; 2: inactive; 3: inactive; 4: inactive; 5: inactive; 6: inactive

----------
- Test system: Hek293T
- protocol_text: Primary qHTS to identify gynecologic anti-cancer compounds using libraries of approved drugs and bioactive compounds (AID 1345084); also: nearly all actives have a fitted effect of over 55% in size
- condition_parameters: Gynecologic cancer cell panel viability, ATPlite luminescence, 48 h, control line for the selectivity index; series mostly up to 57.5 µM
Inconclusive results are not listed. The source made the active and inactive calls. Calls come from the whole dose curve; as a rule, active = well fitted cell-killing curve with a large enough effect; inconclusive = small, poorly fitted or top-dose-only effect, or effect the other way; inactive = flat fitted curve, though single readings scatter.
# valid calls are y = active, n = inactive; nothing else

In: Could you kindly confirm the outcome this assay logged for C=C(COC(=O)C(O)C(O)CN)C12OC1C1(C)C(=CC2=O)C(O)C(O)CC1C (stereo not given) ?
Out: n

In: Recorded call for NCC(CNc1nc(Nc2cccc(NC(=O)N3CCCC3)c2)ncc1I)C(=O)c1cccs1 (stereo not given) ?
Out: n
